System: L6
Experiment: Cytotoxicity against rat L6 cells after 72 hrs by alamar blue staining based fluorescence assay
Format: cell-based
Conditions: L6, 72 h
MEASURE NAME: IC50 (µM)
Kindly answer with a numeric value in µM, unit omitted.

# MOLECULE, VALUE UNIT, IC50
records = [
    ("C=C1C(=O)O[C@@H]2/C=C(\\C)[C@@H](O)C/C=C(\\C)C[C@@H](OC(=O)/C(=C/COC(=O)C(O)C(C)CC)CO)[C@@H]12 (some centres undefined)", "µM", 42.3),
    ("C=C1C(=O)O[C@@H]2/C=C(/C)[C@@H](OC(=O)C(O)C(C)C)C/C=C(\\C)C[C@@H](OC(=O)c3ccoc3)[C@@H]12 (some centres undefined)", "µM", 3.9),
]

Exercise: So what does the record say about IC50 for C=C1C[C@@H](OC(=O)/C(=C/CO)CO)[C@H]2C(=C)C(=O)O[C@@H]2[C@H]2C(C)=C[C@@H](O)[C@@H]12 ?
Key: 42.8

Exercise: So what does the record say about IC50 for C=C1C(=O)O[C@@H]2/C=C(\C)[C@@H](O)C/C=C(\C)C[C@@H](OC(=O)/C(C)=C/CO)[C@@H]12 ?
Key: 51.7

====

Tested on: L6
Experiment: Cytotoxicity against rat L6 cells after 72 hrs by alamar blue staining based fluorescence assay
Type: cell-based
Settings: L6, 72 h
MEASURE NAME: IC50 (µM)
Kindly answer with a numeric value in µM, unit omitted.

Known results for compounds:
# COMPOUND, VALUE UNIT, NUMERIC VALUE
data = [
    ("C=C1C(=O)O[C@@H]2/C=C(/C)[C@@H](OC(C)=O)C/C=C(\\C)C[C@@H](OC(=O)/C(C)=C/CO)[C@@H]12", "µM", 7.94),
    ("C=C1C(=O)O[C@H]2[C@H]1[C@H](OC(=O)/C(=C/COC(=O)C(O)C(C)C)CO)C[C@]1(C)[C@@H]2[C@H](C)C(=O)C[C@H]1O (stereo partly specified)", "µM", 39.7),
    ("C=C1C(=O)O[C@H]2[C@H]1[C@H](OC(=O)/C(=C/CO)CO)CC(=C)[C@@H]1CC(=O)C(C)[C@H]21 (stereo partly specified)", "µM", 12.3),
    ("C=C1C(=O)O[C@@H]2/C=C(/C)[C@@H]3C/C=C(/C[C@@H](OC(=O)/C(=C/CO)CO)[C@@H]12)C[C@@](O)(C(C)C)C(=O)O3", "µM", 3.8),
    ("C=C1C(=O)O[C@@H]2/C=C(/C)[C@@H](OC(C)=O)C[C@H]3O[C@]3(C)C[C@@H](OC(=O)/C(=C/CO)CO)[C@@H]12", "µM", 14.6),
]

Exercise: So what does the record say about IC50 for C=C1C(=O)O[C@@H]2/C=C(\C)[C@@H](O)C/C=C(\C)C[C@@H](OC(=O)/C(=C/COC(=O)C(O)C(C)C)CO)[C@@H]12 (stereo partly specified) ?
Key: 34.1

====

The following molecules are listed with their measured selectivity ratio values.
Test: Selectivity index, ratio of IC50 for rat L6 cells to IC50 for Trypanosoma brucei rhodesiense STIB 900 bloodstream forms
Type: toxicity
Conditions: read-out: Ratio IC50
// keep it numeric: no unit symbol after the value

# MOLECULE, NUMERIC VALUE
records = [
    ("C=C1C(=O)O[C@@H]2/C=C(/C)[C@@H](OC(C)=O)C/C=C(\\C)C[C@@H](OC(=O)C3=CC(O)OC3)[C@@H]12 (some centres not stated)", 11.5),
    ("C=C1C(=O)O[C@@H]2/C=C(/C)[C@@H](OC(C)=O)C/C=C(\\C)C[C@@H](OC(=O)/C(C)=C/CO)[C@@H]12", 4.6),
]

Exercise: So what does the record say about selectivity ratio for C=C1C(=O)O[C@@H]2/C=C(/C)[C@@H](OC(=O)C(O)C(C)C)C/C=C(\C)C[C@@H](OC(=O)c3ccoc3)[C@@H]12 (some centres not stated) ?
Key: 29.7

Exercise: So what does the record say about selectivity ratio for C=C1C[C@@H](OC(=O)/C(=C/CO)CO)[C@H]2C(=C)C(=O)O[C@@H]2[C@H]2C(C)=C[C@@H](O)[C@@H]12 ?
Key: 5.9

Data origin, for the record: ChEMBL document CHEMBL4130586
